Experiment: qHTS assay to identify small molecule antagonists of the thyroid receptor (TR) signaling pathway (AID 743065); note: nearly all actives have a fitted effect of over 55% in size
Settings: GH3.TRE-Luc, T3-stimulated luciferase inhibition, 23.5 h; series mostly up to 70.3 µM
Excerpt: U.S. Tox21 Program National Center for Advancing Translational Sciences [NCATS] NIH Chemical Genomics Center [NCGC] U.S. Environmental Protection Agency [EPA] National Institutes of Environmental Health Sciences [NIEHS] National Toxicology Program [NTP] U.S. Food and Drug Administration [FDA] Tox21 Assay Overview: Thyroid receptor (TR), a nuclear hormone receptor, plays an important role in development, proliferation, differentiation, metabolism, brain function, and cardiovascular system. […]
Results filed as inconclusive are left out. Active and inactive are the calls of the source. Calls come from the whole dose curve; as a rule, active = well fitted inhibition curve with a large enough effect in the repeat runs; inconclusive = weak or mixed curves; inactive = no such curve, though single readings can be large or run the other way.
Hello, when you answer, please use one of the following outcomes: active, inactive

>>> assigned_class("CCCCCCCCOC(=O)c1cc(O)c(O)c(O)c1")
"active"
>>> assigned_class("CCCCCCCC/C=C\\CCCCCCCC(=O)N(CCO)CCO")
"active"
>>> assigned_class("CS(=O)(=O)c1ccc([C@@H](O)[C@@H](COC(=O)CN)NC(=O)C(Cl)Cl)cc1")
"inactive"
>>> assigned_class("CCCCCCCCCCCCCCCCCCNC(=O)OC1CCN(C(=O)OC[C@H](COC(=O)N(Cc2cccc[n+]2CC)C(=O)c2ccccc2OC)OC)CC1")
"active"
>>> assigned_class("CC(C)c1ncc([N+](=O)[O-])n1C")
"inactive"
>>> assigned_class("NCc1cccc(C2CCN(C(=O)c3ccc(C#Cc4ccccc4F)o3)CC2)c1")
"active"
>>> assigned_class("CN1C(C(=O)Nc2ccccn2)C(=O)c2sc(Cl)cc2S1(=O)=O (stereo unspecified)")
"inactive"
>>> assigned_class("C[S+](C)CCC(N)C(=O)O (stereo unspecified)")
"inactive"

State the result this test recorded for `CCOC(=O)Cc1ccc(-c2ccccc2)cc1` . inactive

Consider next the compound `O=C[C@H](O)[C@@H](O)[C@@H](O)[C@H](O)CO` in the same way. inactive

Consider next the compound `O=C(N[C@H](CO)[C@H](O)c1ccc([N+](=O)[O-])cc1)C(Cl)Cl` in the same way. inactive
